# target.desc: Neuropilin-1 (Homo sapiens) (UniProt O14786)
# Sequence (O14786 whole entry, looked up): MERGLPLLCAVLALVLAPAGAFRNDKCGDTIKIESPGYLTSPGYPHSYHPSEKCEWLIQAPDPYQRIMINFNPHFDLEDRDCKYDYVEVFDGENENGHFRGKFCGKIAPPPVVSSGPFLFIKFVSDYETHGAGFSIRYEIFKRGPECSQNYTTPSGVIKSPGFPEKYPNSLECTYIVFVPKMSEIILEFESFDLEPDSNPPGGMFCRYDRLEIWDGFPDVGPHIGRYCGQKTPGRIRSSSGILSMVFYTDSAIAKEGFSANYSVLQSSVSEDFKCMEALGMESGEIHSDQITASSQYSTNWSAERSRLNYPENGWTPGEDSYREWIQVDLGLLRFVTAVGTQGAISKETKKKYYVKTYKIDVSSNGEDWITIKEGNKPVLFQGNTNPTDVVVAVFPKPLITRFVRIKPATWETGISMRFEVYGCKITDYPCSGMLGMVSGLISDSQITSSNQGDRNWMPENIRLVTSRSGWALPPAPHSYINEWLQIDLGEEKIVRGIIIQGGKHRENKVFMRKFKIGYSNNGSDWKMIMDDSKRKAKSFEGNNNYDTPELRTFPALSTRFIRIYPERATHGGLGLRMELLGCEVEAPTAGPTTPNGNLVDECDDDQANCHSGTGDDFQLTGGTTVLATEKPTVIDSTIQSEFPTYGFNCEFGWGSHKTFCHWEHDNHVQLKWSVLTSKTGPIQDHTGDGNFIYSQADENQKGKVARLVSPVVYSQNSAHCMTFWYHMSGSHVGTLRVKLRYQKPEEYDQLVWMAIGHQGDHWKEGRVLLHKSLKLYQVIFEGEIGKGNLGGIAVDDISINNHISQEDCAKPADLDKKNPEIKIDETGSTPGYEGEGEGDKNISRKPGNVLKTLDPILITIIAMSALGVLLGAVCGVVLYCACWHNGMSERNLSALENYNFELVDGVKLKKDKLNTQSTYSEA
# experiment.summary: NRP-1 b1b2 CendR peptide binding inhibitors, dose response, biochemical, FP and AlphaScreen panel (AID 651650)
# stated.conditions: NRP-1 b1b2 / RPARPAR peptide binding, FP or AlphaScreen; AlphaScreen, run 1; individual panel run IC50
pIC50: −log10 of the molar value.
assay.metric: pIC50

# input Read the entry `O=C1N[C@H](Cc2c[nH]c3ccccc23)COC(=O)[C@H](Cc2ccc(F)cc2)C/C=C\C[C@H]1CC(=O)N(CCO)Cc1ccccc1` and write its reported pIC50.
# output 4.82

# input Read the entry `OCCCc1n[nH]c(=S)n1-c1ccccc1` and write its reported pIC50.
# output < 4.00

# input Read the entry COc1ccncc1-c1csc(C(O)c2ccccc2)n1 (stereo unspecified) and write its reported pIC50.
# output < 4.00

# input Read the entry `CC(C)(C)c1nc(SCC(=O)NCc2ccco2)c2ccccc2n1` and write its reported pIC50.
# output 4.55

# input Read the entry CCNC(=O)C1(C)CCCN(C(=O)c2nc(C)oc2C)C1 (stereo unspecified) and write its reported pIC50.
# output < 4.00

# input Read the entry `O=[N+]([O-])c1ccc(Cc2ccncc2)cc1` and write its reported pIC50.
# output < 4.00

# input Read the entry `CCOC(=O)c1cnc(-c2ccccc2)nc1Oc1ccc(OC)cc1` and write its reported pIC50.
# output 4.98

# input Read the entry `COc1ccc(N=C2C(=Nc3ccc(OC)cc3)N(c3ccc(N(C)C)cc3)C(=S)N2c2ccc(OC)cc2)cc1` and write its reported pIC50.
# output < 4.00

# input Read the entry `CCCNC(=S)Nc1cccc(C(F)(F)F)c1` and write its reported pIC50.
# output < 4.00

# input Read the entry `O=c1c2cn[nH]c2nc(SCc2ccccc2F)n1-c1ccc(Br)cc1` and write its reported pIC50.
# output < 4.00

# input Read the entry `Cc1ccc(Cl)c(NC(=O)CSc2cccc[n+]2[O-])c1Cl` and write its reported pIC50.
# output < 4.00
